Here the recorded cytotoxicity at 70.5 h is given for each entry.
EXPERIMENT_SUMMARY: Human HepG2 cell viability assay in 384 well format
Assay type: toxicity, cell-based
Set-up: dose 125 nL, time 70.5 hour; concentration not given beside the values
STATED_CONDITIONS: HepG2 cells, read-out: Inhibition
RESULT_TYPE: cytotoxicity at 70.5 h (%)

>>> value("c1cnc(-c2nc(CNC3CCc4ncnn4C3)cs2)nc1 (stereo unspecified)")
-6.68
>>> value("CN(CCn1cccn1)C1CCCN(Cc2noc(C3CC3)n2)C1 (stereo unspecified)")
12.7
>>> value("N#Cc1ccc(C2CC(=O)Nc3c(C(=O)O)nsc32)cc1 (stereo unspecified)")
-5.94
>>> value("CNC(=O)NCCc1csc2ccccc12")
-0.00639
>>> value("CCCc1noc(C2CCN(S(=O)(=O)c3cccs3)CC2)n1")
-2.96
>>> value("Cc1cnccc1NCCNC1CCSCC1")
-17.3
>>> value("O=C(c1cc(=O)[nH]c(=O)[nH]1)N1CCCCC1c1nc2cc(F)ccc2[nH]1 (stereo unspecified)")
-6.77
>>> value("Cc1csc(N2CCN(C(=O)c3cc(C4CC4)[nH]n3)CC2)n1")
-5.91
>>> value("O=C1CO[C@@H]2CN(Cc3cccnc3)C[C@H]2N1Cc1ccncc1")
-6.09
>>> value("CCCc1nc2c(c(C)c(C)n2Cc2ccccn2)c(N)c1CC")
80.2
>>> value("Cn1ccnc1CN1C[C@@H]2OCCN(c3ncccn3)[C@@H]2C1")
-16.1

* * *

EXPERIMENT_SUMMARY: Human HepG2 cell viability assay in 384 well format
Assay type: toxicity, cell-based
Parameters: dose 125 nL, time 70.5 hour; concentration not given beside the values
STATED_CONDITIONS: HepG2 cells, read-out: Inhibition
Listed here are molecules together with their documented cytotoxicity at 70.5 h.
RESULT_TYPE: cytotoxicity at 70.5 h (%)

>>> value("c1cc(CN2C[C@@H]3OCCN(CCN4CCCC4)[C@@H]3C2)cs1")
-8.5
>>> value("CCC(CC)C(=O)NCC1(NC(C)c2ccccc2)CCOCC1 (stereo not drawn)")
16.6
>>> value("O=C1NC2(CCCN(C(=O)CCn3cccn3)C2)Oc2ccccc21 (stereo not drawn)")
1.47
>>> value("O=C(c1cccs1)N1CCCn2c(nc(CN3CCCC3)cc2=O)C1")
-0.229
>>> value("CCNc1cc2c(nn1)CCN(C(=O)C1COc3ccccc3C1)C2 (stereo not drawn)")
-12.3
>>> value("O=C(C(c1ccccc1)S(=O)(=O)c1ccccn1)N1CCCC1 (stereo not drawn)")
-2.5
>>> value("Cc1ccc(NC2CCCN(CCc3ccccc3)C2)nn1 (stereo not drawn)")
-3.93
>>> value("COc1ccc(NC(=O)C(c2cccc(F)c2)N2CCOCC2)cc1 (stereo not drawn)")
-8.8
>>> value("CN1CCN(c2cc(CNC(=O)c3ccsc3)ccn2)CC1")
1
>>> value("Cc1cc(C)n(Cc2ccc(C(=O)N3CCOCC3(C)C)cc2)n1")
12.1
>>> value("Cc1ccc(N2CCOCC3(CCCN(c4ncc(F)cn4)C3)C2)nn1 (stereo not drawn)")
-3.89
>>> value("CNC(=O)[C@@H]1C[C@H]2CN(Cc3ccc(C)s3)C[C@H]2N1C(C)=O")
-1.67
>>> value("CC(C)N1CC(C(=O)NCc2ccc(S(=O)(=O)N(C)C)cc2)CC1=O (stereo not drawn)")
-7.28
>>> value("Cc1cc(CN2CCN(C(=O)NCc3c(C)noc3C)CC2)on1")
-13.9
>>> value("COc1ccc(Cl)cc1CC(=O)N1CCN(CC(C)O)CC1 (stereo not drawn)")
-5.64
>>> value("CCn1nc(C)c(CCn2ccnc2-c2cc3n(n2)CCNC3)c1C")
-0.934
>>> value("O=C(CCn1ccccc1=O)Nc1ccc(C(=O)O)cc1")
-4.88
>>> value("O=C1CN(S(=O)(=O)CC(F)(F)F)CC(O)CN1CCCc1ccccc1 (stereo not drawn)")
-3.16
>>> value("CNC(=O)[C@@]12CCC3(CCNCC3)[C@@H]1CN(S(C)(=O)=O)C2")
4.08
>>> value("COC(=O)c1ccc(-c2noc(CN(CCO)Cc3cccs3)n2)cc1")
-10.2
>>> value("Cc1nn(C)c2nc(NCCCN3CCCC(C(N)=O)C3)sc12 (stereo not drawn)")
-8.69
>>> value("Cc1cc(=O)n2ncnc2n1CC(O)COCc1ccccc1Cl (stereo not drawn)")
-9.61
>>> value("CCCNC(=O)C1CCCN(Cc2csc(C(C)(C)C)n2)C1 (stereo not drawn)")
17.8
